Attribution: ChEMBL document CHEMBL5058577

compounds and their reported Population Membrane Permeable-Phenotype (%)
System: U2OS
Experiment: Multiplex assay against U2OS
Format: toxicity, cell-based
Conditions: human, 12 h, 10 µM, compound concentration 10 uM, replicate 1

Cl.N=C(N)NC(=O)Cc1c(Cl)cccc1Cl [GUANFACINE HYDROCHLORIDE] = 10%
Br.CS(=O)(=O)Nc1c(O)ccc2c1CCCC2C1=NCCN1 (stereo not given) = 8%
CN[C@@H](C)C(=O)N[C@H](C(=O)N1CCC[C@H]1C(=O)Nc1snnc1-c1ccccc1)C1CCCCC1 [GDC-0152] = 65%
CC(=O)Nc1cccc2c1c(Sc1ccc(Cl)cc1)c(C)n2CC(=O)O [AZD1981] = 8%
CC[C@@H](C)Nc1nc(C)nc2c(-c3ccc(OC)nc3C)c(C)nn12 [PEXACERFONT] = 2%
CC(C)COc1ccc(CNC(=O)N(Cc2ccc(F)cc2)C2CCN(C)CC2)cc1 [PIMAVANSERIN] = 48%
CN(C)C(=O)Cn1cc(-c2ccc(-c3cncc4ccccc34)cc2)cn1 = 20%
Cc1cccc(NC(=O)CN2CCC(c3ccccn3)CC2)c1.Cl.Cl = 8%

input: Form field: reported Population Membrane Permeable-Phenotype (%) of N#Cc1c(Oc2cccc(OS(=O)(=O)CCCC(F)(F)F)c2)cccc1C(F)(F)F
output: 11%

input: What do you have for COC[C@@H](c1ccc(C(F)(F)F)cc1)N1CCN(C2(C)CCN(C(=O)c3c(C)ncnc3C)CC2)C[C@@H]1C.O=C(O)/C=C\C(=O)O [VICRIVIROC MALEATE] ?
output: 13%

###

Tested on: Fibroblast
Test: Multiplex assay against human fibroblast
Type: toxicity, cell-based
Conditions: 48 h, 10 µM, compound concentration 10 uM, replicate 2
Measured Property: Population Mitotic Cells (%)
Your answer is read as %, so omit the unit and give the number.

In the examples that follow, each entry is paired with its recorded Population Mitotic Cells (%).
CC(C)c1noc(N2CCC(COc3ccc(-c4ccc(S(C)(=O)=O)cc4)nc3)CC2)n1 = 50
CC(C)(C)c1cc(NC(=O)Nc2ccc(-c3cn4c(n3)sc3cc(OCCN5CCOCC5)ccc34)cc2)no1 = 40
Cc1noc(-c2ccc(-c3ccc(CC(=O)O)cc3)cc2)c1NC(=O)O[C@H](C)c1ccccc1Cl = 60
Cl.N=C(N)NC(=O)Cc1c(Cl)cccc1Cl [GUANFACINE HYDROCHLORIDE] = 54
N#Cc1c(Oc2cccc(OS(=O)(=O)CCCC(F)(F)F)c2)cccc1C(F)(F)F = 40

For the next question, use this compound.
input: Form field: reported Population Mitotic Cells (%) of CCCCC1=NC2(CCCC2)C(=O)N1Cc1ccc(-c2ccccc2-c2nnn[nH]2)cc1
output: 62

###

System: U2OS
Assay: Multiplex assay against U2OS
Format: toxicity, cell-based
Details: human, 24 h, 1 µM, compound concentration 1 uM, replicate 1
Measured Property: Population Healthy Nuclei (%)

In the examples that follow, each entry is paired with its recorded Population Healthy Nuclei (%).
CCc1cc2cc(NS(=O)(=O)c3ccc(C#N)cc3)ccc2n(CC)c1=O = 61%
COc1ccccc1N1CCN(C[C@@H](C(=O)NC(C)(C)C)c2ccccc2)CC1.Cl.Cl = 62%
C[C@H](N)COC(=O)[C@@H](CCCCN)NC(=O)Cc1c(-c2ccc3ccccc3c2)[nH]c2c1ccc1ccccc12 = 68%

For the next question, use this compound.
input: Form field: reported Population Healthy Nuclei (%) of Cc1noc(-c2ccc(-c3ccc(CC(=O)O)cc3)cc2)c1NC(=O)O[C@H](C)c1ccccc1Cl
output: 70%
